B1: tRNA (parent)
chain: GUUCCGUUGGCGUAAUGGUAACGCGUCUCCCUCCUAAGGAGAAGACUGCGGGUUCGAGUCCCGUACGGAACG

Variants of: B1
EXPERIMENT SUMMARY: yeast fitness relative to wild type (ratio to wild type); higher = fitter; tRNA-Arg(CCU), competitive growth, 37 C, YPD
This sample holds only a part of the variants without activity.

{"columns": ["POLYMER SEQUENCE", "yeast fitness"],
 "data": [
  ["GUUCCGAUGGCGUAAUGGUAACGCGUCUCCCUCCUAAGGAGAAGACUGCGGGUUCGAGUCACGUACGGAACG", 0.603],
  ["GUUCCGUUGGAGUAAUGGUAACGCGUCUCCCUCCUAAGGAGAAGACUGCGGGUUCGAGUCCUGUACGGAACG", 0.616],
  ["GUUCCGUUGGCGUAAUGGUAAUGCGUCUCCCUCCUGAGGAGAAGACUGCGCGUUCGAGUCCCGUCCGGAACG", 0.6],
  ["GUUCCGUUGGCCUAAUGGUAACGCGUCUCACUCCUAAGGAGAAGACUACGGGUUGGAGUCCCGUACGGAACG", 0.607]
]}

FYI, the data here is from the RNAGym collection of RNA variant scans (doi:10.1126/science.aae0568).
